# targetSystem: HLA-A2 (Homo sapiens, UniProt P04439, D140Y/D185E/D98H/E176V/E277Q/G131W/G231S/I119V/I121R/I166T/I218V/L300P/L318F/N151K/N90K/P208A/P217A/Q86G/Q94H/R138H/R169H/T345S)
# protocolNotes: Competitive peptide binding assay to purified HLA-A2
pIC50: −log10 of the molar value. Non-standard residues stand in square brackets, D forms with d. Residues, ends and D or L forms follow the SMILES beside them. pS = N[C@@H](COP(=O)(O)O)C(=O)O
Decision: pIC50 >= 7 yields T, all other cases yield F.

API: above_or_equal(metric=pIC50, cutoff=7) for item CC(C)[C@H](NC(=O)CNC(=O)[C@H](CO)NC(=O)[C@@H](NC(=O)[C@@H]1CCCN1C(=O)[C@H](COP(=O)(O)O)NC(=O)[C@H](C)NC(=O)[C@@H](NC(=O)[C@@H](N)CCCNC(=N)N)C(C)C)[C@@H](C)O)C(=O)O [RVApSPTSGV] (H-RVA[pS]PTSGV-OH)
F

API: above_or_equal(metric=pIC50, cutoff=7) for item `CC[C@H](C)[C@H](NC(=O)[C@H](CO)NC(=O)[C@H](C)NC(=O)[C@H](CCC(N)=O)NC(=O)[C@H](C)N)C(=O)N[C@@H](CCC(=O)O)C(=O)N[C@@H](CC(C)C)C(=O)N1CCC[C@H]1C(=O)N[C@@H](CO)C(=O)N[C@@H](CCSC)C(=O)O`
F

API: above_or_equal(metric=pIC50, cutoff=7) for item CC[C@H](C)[C@H](NC(=O)[C@H](CO)NC(=O)[C@H](CC(C)C)NC(=O)[C@H](COP(=O)(O)O)NC(=O)[C@H](C)NC(=O)[C@H](CCC(N)=O)NC(=O)[C@@H](N)CCCNC(=N)N)C(=O)N[C@@H](CO)C(=O)N[C@H](C(=O)O)C(C)C [RQApSLSISV] (H-RQA[pS]LSISV-OH)
T

API: above_or_equal(metric=pIC50, cutoff=7) for item CSCC[C@H](NC(=O)[C@H](CC(=O)O)NC(=O)[C@H](CC(C)C)NC(=O)[C@H](Cc1ccccc1)NC(=O)[C@H](COP(=O)(O)O)NC(=O)[C@H](CC(=O)O)NC(=O)[C@H](CCSC)NC(=O)[C@@H](N)CCCCN)C(=O)N[C@@H](CCC(N)=O)C(=O)N[C@@H](CC(C)C)C(=O)O [KMDpSFLDMQL] (H-KMD[pS]FLDMQL-OH)
T

API: above_or_equal(metric=pIC50, cutoff=7) for item CC[C@H](C)[C@H](NC(=O)[C@H](CO)NC(=O)[C@H](C)NC(=O)[C@H](CCC(N)=O)NC(=O)[C@@H](N)CCCNC(=N)N)C(=O)N[C@@H](CCC(=O)O)C(=O)N[C@@H](CC(C)C)C(=O)N1CCC[C@H]1C(=O)N[C@@H](CO)C(=O)N[C@@H](CCSC)C(=O)O (H-RQASIELPSM-OH)
F

API: above_or_equal(metric=pIC50, cutoff=7) for item CC[C@H](C)[C@H](NC(=O)[C@H](COP(=O)(O)O)NC(=O)[C@H](C)NC(=O)[C@H](CCC(N)=O)NC(=O)[C@@H](N)CCCNC(=N)N)C(=O)N[C@@H](CCC(=O)O)C(=O)N[C@@H](CC(C)C)C(=O)N1CCC[C@H]1C(=O)N[C@@H](CO)C(=O)N[C@@H](CCSC)C(=O)O [RQApSIELPSM] (H-RQA[pS]IELPSM-OH)
T

API: above_or_equal(metric=pIC50, cutoff=7) for item CC(C)C[C@H](NC(=O)CN)C(=O)N[C@@H](CC(C)C)C(=O)NCC(=O)N[C@@H](COP(=O)(O)O)C(=O)N1CCC[C@H]1C(=O)N[C@H](C(=O)N[C@@H](CCCNC(=N)N)C(=O)N[C@@H](C)C(=O)O)C(C)C [GLLGpSPVRA] (H-GLLG[pS]PVRA-OH)
F

API: above_or_equal(metric=pIC50, cutoff=7) for item CC(C)C[C@H](NC(=O)CNC(=O)[C@H](Cc1ccc(O)cc1)NC(=O)[C@@H](NC(=O)[C@@H]1CCCN1C(=O)[C@H](COP(=O)(O)O)NC(=O)[C@H](Cc1ccccc1)NC(=O)[C@@H](NC(=O)[C@@H](N)CCCNC(=N)N)[C@@H](C)O)[C@@H](C)O)C(=O)O [RTFpSPTYGL] (H-RTF[pS]PTYGL-OH)
T

API: above_or_equal(metric=pIC50, cutoff=7) for item CC[C@H](C)[C@H](NC(=O)[C@H](CO)NC(=O)[C@H](C)NC(=O)[C@H](CC(C)C)NC(=O)[C@@H](N)CCCNC(=N)N)C(=O)N[C@@H](CCC(=O)O)C(=O)N[C@@H](CC(C)C)C(=O)N1CCC[C@H]1C(=O)N[C@@H](CO)C(=O)N[C@H](C(=O)O)C(C)C (H-RLASIELPSV-OH)
T

API: above_or_equal(metric=pIC50, cutoff=7) for item CC[C@H](C)[C@H](NC(=O)[C@H](COP(=O)(O)O)NC(=O)[C@H](C)NC(=O)[C@H](CCC(N)=O)NC(=O)[C@H](C)N)C(=O)N[C@@H](CCC(=O)O)C(=O)N[C@@H](CC(C)C)C(=O)N1CCC[C@H]1C(=O)N[C@@H](CO)C(=O)N[C@@H](CCSC)C(=O)O [AQApSIELPSM]
T
